# EXPERIMENTAL SYSTEM: T1, recombinant human Tau monomer, 2N4R isoform (amino acids 2-441) (human, UniProt P10636-8 2-441)
# T1 construct: range 2-441; N-terminal His-tag removed with TEV protease; also called monomeric Tau
# T1 sequence (P10636 other isoform, or with tags, fused parts or gaps limits assumed): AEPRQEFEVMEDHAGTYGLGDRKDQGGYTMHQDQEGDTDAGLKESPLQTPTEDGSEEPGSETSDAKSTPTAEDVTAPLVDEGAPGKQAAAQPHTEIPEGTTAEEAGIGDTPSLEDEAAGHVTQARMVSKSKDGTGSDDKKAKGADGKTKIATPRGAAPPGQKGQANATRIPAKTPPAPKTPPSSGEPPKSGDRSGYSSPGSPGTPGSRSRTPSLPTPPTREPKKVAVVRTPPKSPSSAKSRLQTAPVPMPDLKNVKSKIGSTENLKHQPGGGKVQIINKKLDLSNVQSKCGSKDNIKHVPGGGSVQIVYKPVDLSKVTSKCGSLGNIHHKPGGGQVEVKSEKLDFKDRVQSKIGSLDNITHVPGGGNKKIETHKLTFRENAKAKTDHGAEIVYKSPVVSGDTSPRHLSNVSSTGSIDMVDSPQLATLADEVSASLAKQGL
# EXPERIMENT: SPR, captured IgG, Tau monomer analyte, 1:1 model; fit-quality column: Yes
pKd: −log10 of the molar value.
ENDPOINT LABEL: pKd

hu37D3-H9.v31.3 (antibody, V domains shown) VH: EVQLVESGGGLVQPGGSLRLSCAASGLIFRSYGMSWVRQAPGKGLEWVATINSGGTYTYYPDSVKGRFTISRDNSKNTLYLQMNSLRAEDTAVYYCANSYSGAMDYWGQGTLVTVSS VL: DDVLTQTPLSLPVTPGQPASISCRSSQSIVHSNAITYFEWYLQKPGQSPQLLIYKVSNRFSGVPDRFSGSGSGTDFTLKISRVEAEDVGVYYCFQGSLVPWTFGQGTKVEIK
8.01
hu37D3.v28.A22 (antibody, V domains shown) VH: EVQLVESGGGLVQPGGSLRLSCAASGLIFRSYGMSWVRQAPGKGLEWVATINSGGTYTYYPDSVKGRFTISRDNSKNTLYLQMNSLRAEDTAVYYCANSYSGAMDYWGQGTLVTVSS VL: DVVLTQTPLSLPVTPGQPASISCRSSQSIVHSNGNTYLEWYLQKPGQSPQLLIYKVSNRFSGVPDRFSGSGSGTDFTLKISRVEAEDVGVYYCFQGSHVPWTFGQGTKVEIK
7.56
hu37D3.v29.11 (antibody, V domains shown) VH: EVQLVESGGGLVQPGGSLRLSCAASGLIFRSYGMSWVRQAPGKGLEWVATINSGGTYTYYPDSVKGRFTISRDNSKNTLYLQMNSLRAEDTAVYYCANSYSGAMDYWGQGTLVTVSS VL: EDVLTQTPLSLPVTPGQPASISCRSSQSIVHSNAATYFEWYLQKPGQSPQLLIYKVSNRFSGVPDRFSGSGSGTDFTLKISRVEAEDVGVYYCFQGSLVPWTFGQGTKVEIK
7.55
hu37D3.v28.54 (antibody, V domains shown) VH: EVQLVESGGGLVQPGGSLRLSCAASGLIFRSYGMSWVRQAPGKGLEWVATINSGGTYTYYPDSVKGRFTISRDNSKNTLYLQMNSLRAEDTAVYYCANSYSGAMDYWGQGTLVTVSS VL: EDVLTQTPLSLPVTPGQPASISCRSSQSIVHSLGNTYFEWYLQKPGQSPQLLIYKVSNRFSGVPDRFSGSGSGTDFTLKISRVEAEDVGVYYCFQGSLVPWTFGQGTKVEIK
7.61
hu37D3.v28.A26 (antibody, V domains shown) VH: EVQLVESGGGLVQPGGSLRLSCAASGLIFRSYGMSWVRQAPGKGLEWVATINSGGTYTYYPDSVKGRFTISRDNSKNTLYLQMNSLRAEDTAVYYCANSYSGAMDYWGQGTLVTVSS VL: DVVMTQTPLSLPVTPGQPASISCRSSQSIVHSNGNTYFEWYLQKPGQSPQLLIYKVSNRFSGVPDRFSGSGSGTDFTLKISRVEAEDVGVYYCFQGSHVPWTFGQGTKVEIK
7.65

meta.source: patent US20190367592A1
